Molecular target: T1, EsCas13d, nuclease-dead (Eubacterium siraeum, UniProt B0MS50, R295A;H300A;R849A;H854A)
T1 sequence: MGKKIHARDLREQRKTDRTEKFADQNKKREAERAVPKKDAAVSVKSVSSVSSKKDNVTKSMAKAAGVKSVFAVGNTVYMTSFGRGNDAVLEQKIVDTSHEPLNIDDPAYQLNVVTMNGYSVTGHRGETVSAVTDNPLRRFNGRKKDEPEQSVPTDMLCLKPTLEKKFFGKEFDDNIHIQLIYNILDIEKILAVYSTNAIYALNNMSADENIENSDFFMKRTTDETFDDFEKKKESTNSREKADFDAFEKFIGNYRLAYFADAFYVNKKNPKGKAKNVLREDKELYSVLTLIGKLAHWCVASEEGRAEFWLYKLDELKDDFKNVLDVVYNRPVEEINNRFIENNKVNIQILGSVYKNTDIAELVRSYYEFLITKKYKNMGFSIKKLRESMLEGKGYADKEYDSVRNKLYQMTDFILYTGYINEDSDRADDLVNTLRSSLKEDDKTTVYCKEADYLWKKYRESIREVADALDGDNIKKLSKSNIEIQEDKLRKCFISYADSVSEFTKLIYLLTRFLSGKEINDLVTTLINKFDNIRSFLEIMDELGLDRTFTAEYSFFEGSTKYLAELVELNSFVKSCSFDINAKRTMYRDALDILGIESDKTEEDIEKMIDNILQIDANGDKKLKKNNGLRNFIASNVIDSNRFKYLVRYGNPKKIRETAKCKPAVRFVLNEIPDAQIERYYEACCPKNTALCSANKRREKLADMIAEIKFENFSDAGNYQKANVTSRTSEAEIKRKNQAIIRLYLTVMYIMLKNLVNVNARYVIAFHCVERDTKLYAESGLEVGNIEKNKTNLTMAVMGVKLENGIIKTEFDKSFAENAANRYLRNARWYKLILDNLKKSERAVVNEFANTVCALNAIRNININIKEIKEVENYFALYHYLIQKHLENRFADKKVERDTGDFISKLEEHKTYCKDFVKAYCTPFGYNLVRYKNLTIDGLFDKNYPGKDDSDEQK
Test: crRNA (strand 1, pre-loaded); Mg2+; 40 mM Tris-HCl pH 7.5, 150 mM NaCl, 6 mM MgCl2, 1 mM DTT, 0.1% Tween-20, 0.2 mg/ml BSA; 25 C; 10 min per concentration, then washed
Details: tags: His6-TwinStrep-SUMO cleaved; N-terminal SNAP kept (SNAP-Surface 488); label: 3' end held by stalled T7 RNA polymerase
Quantity: pKd
pKd is a log-scale quantity: -log10 of the concentration expressed in molar.

Use the examples below as a reference point.
target 2 MT 5'PFS GUA 3'PFS UAC (mixed) RNA 1: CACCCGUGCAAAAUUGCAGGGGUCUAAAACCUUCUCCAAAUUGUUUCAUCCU RNA 2: GGGAAUGGAUCCACAUCUACGAAUUCGUAAGGAUGAAACAAUUUGGAGAAGUACAGAUCGGAAGAGCACACGU; 8.11
target 2 MT 5'PFS GCA 3'PFS UCA (mixed) RNA 1: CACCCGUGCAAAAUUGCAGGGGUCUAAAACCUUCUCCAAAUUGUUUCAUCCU RNA 2: GGGAAUGGAUCCACAUCUACGAAUUCGCAAGGAUGAAACAAUUUGGAGAAGUCAAGAUCGGAAGAGCACACGU; 7.96

# evaluate next
[in] What value of pKd has been recorded for this entry: target 1 U8C,A18U (mixed) RNA 1: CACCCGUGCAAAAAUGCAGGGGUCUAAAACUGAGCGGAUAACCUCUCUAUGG RNA 2: GGGAAUGGAUCCACAUCUACGAAUUCGUACCAUUGAGAGGUUACCCGCUCACCGAGAUCGGAAGAGCACACGU
[out] 7.37

Source: paper PMC10786891
